- measurement protocol: NOVARTIS: Cytotoxicity against human hepatocellular carcinoma cell line (Huh7)
- Assay type: toxicity, cell-based, Huh-7
- test context: Huh7 cells (hepatocellular carcinoma cell line)
Give measured CC50 for each item. Keep answers brief.

Challenge: Data request, read-out CC50, for CCOC(=O)C1=C(C)NC2=C(C(=O)CC(c3ccc(OC)c(OC)c3)C2)C1c1cccc(Cl)c1 (stereo not given)
Response given: > 74.6 µM

Challenge: Okay, and COc1cccc(C2CC3(CC(C)(C)NC(=S)N3)Oc3cc(OC(C)=O)c(Cl)cc32)c1 (stereo not given) ?
Response given: > 10 µM

Challenge: Okay, and `CC(C)(C)CC(C)(C)Nc1c(-c2ccccc2OC(=O)c2ccc(Br)cc2)nc2ccccn12` ?
Response given: > 1.43 µM

Challenge: Okay, and `COc1cc2nc(C3CCC3)n(NC(=O)c3cccc(F)c3)c(=O)c2cc1OC` ?
Response given: > 10 µM

Challenge: Okay, and `CN(CCCNc1ccnc2cc(Cl)ccc12)C(=O)c1cccc(Br)c1` ?
Response given: 9.59 µM
